Target: Thyroid hormone receptor beta (Homo sapiens, UniProt P10828)
Sequence (P10828 whole entry): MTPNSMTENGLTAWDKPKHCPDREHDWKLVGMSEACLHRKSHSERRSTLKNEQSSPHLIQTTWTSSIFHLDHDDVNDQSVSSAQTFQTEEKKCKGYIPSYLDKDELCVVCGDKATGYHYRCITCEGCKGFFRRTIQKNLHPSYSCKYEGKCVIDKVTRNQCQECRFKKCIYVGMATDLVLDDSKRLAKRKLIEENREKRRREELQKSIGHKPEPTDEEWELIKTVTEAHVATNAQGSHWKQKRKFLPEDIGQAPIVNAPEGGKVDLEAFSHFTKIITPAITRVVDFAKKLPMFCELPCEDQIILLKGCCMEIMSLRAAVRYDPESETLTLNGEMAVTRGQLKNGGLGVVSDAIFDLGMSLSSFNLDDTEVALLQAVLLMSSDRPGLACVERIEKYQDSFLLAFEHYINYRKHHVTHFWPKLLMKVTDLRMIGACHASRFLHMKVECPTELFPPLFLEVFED
QUANTITY_NAME: Ki

[
  {
    "COMPOUND": "C#C[C@]1(O)CC[C@H]2[C@@H]3CCC4=CC(=O)CCC4=C3[C@@H](c3ccc(N(C)CCOC4CC[C@@]5(C)[C@@H](C4)C[C@@H](O)[C@@H]4[C@@H]5C[C@H](O)[C@]5(C)[C@@H]([C@H](C)CCC(=O)O)CC[C@@H]45)cc3)C[C@@]21C (stereo in doubt; form 2)",
    "ASSAY_VALUE": "1500 nM"
  },
  {
    "COMPOUND": "C#C[C@]1(O)CC[C@H]2[C@@H]3CCC4=CC(=O)CCC4=C3[C@@H](c3ccc(N(C)CCOCCO[C@H]4CC[C@@]5(C)[C@@H](C4)C[C@@H](O)[C@@H]4[C@@H]5C[C@H](O)[C@]5(C)[C@@H]([C@H](C)CCC(=O)O)CC[C@@H]45)cc3)C[C@@]21C",
    "ASSAY_VALUE": "> 2250 nM"
  },
  {
    "COMPOUND": "C#C[C@]1(O)CC[C@H]2[C@@H]3CCC4=CC(=O)CCC4=C3[C@@H](c3ccc(N(C)CCOC4CC[C@@]5(C)[C@@H](C4)C[C@@H](O)[C@@H]4[C@@H]5C[C@H](O)[C@]5(C)[C@@H]([C@H](C)CCC(=O)NCCS(=O)(=O)O)CC[C@@H]45)cc3)C[C@@]21C (stereo not given in full)",
    "ASSAY_VALUE": "> 2250 nM"
  },
  {
    "COMPOUND": "C#C[C@]1(O)CC[C@H]2[C@@H]3CCC4=CC(=O)CCC4=C3[C@@H](c3ccc(N(C)C(=O)CNC(=O)O[C@@H]4C[C@@H]5CC(O)CC[C@]5(C)[C@H]5C[C@H](O)[C@]6(C)[C@@H]([C@H](C)CCC(=O)O)CC[C@H]6[C@H]45)cc3)C[C@@]21C (stereo not given in full)",
    "ASSAY_VALUE": "> 2250 nM"
  },
  {
    "COMPOUND": "C#C[C@]1(O)CC[C@H]2[C@@H]3CCC4=CC(=O)CCC4=C3[C@@H](c3ccc(N(C)CCNC(=O)N(C)C4CC[C@@]5(C)[C@@H](C4)C[C@@H](O)[C@@H]4[C@@H]5C[C@H](O)[C@]5(C)[C@@H]([C@H](C)CCC(=O)O)CC[C@@H]45)cc3)C[C@@]21C (stereo not given in full)",
    "ASSAY_VALUE": "> 2250 nM"
  }
]

----------
pKi: −log10 of the molar value.
Form: system (Glucocorticoid receptor (Rattus norvegicus) (UniProt P06536)), quantity (pKi), values below.

[
  {
    "MOLECULE": "C#C[C@]1(O)CC[C@H]2[C@@H]3CCC4=CC(=O)CCC4=C3[C@@H](c3ccc(N(C)C(=O)CNC(=O)O[C@@H]4C[C@@H]5CC(O)CC[C@]5(C)[C@H]5C[C@H](O)[C@]6(C)[C@@H]([C@H](C)CCC(=O)O)CC[C@H]6[C@H]45)cc3)C[C@@]21C (some centres undefined)",
    "MEASUREMENT_TARGET": "Glucocorticoid receptor (Rattus norvegicus) (UniProt P06536)",
    "pKi": 6.64
  },
  {
    "MOLECULE": "C#C[C@]1(O)CC[C@H]2[C@@H]3CCC4=CC(=O)CCC4=C3[C@@H](c3ccc(N(C)C(=O)CNC(=O)O[C@H]4C[C@H]5[C@@H]([C@H](O)C[C@@H]6C[C@H](O)CC[C@@]65C)[C@@H]5CC[C@H]([C@H](C)CCC(=O)O)[C@@]45C)cc3)C[C@@]21C",
    "MEASUREMENT_TARGET": "Glucocorticoid receptor (Rattus norvegicus) (UniProt P06536)",
    "pKi": 6.30
  },
  {
    "MOLECULE": "C#C[C@]1(O)CC[C@H]2[C@@H]3CCC4=CC(=O)CCC4=C3[C@@H](c3ccc(N(C)CCC[C@H]4[C@H](O)CC[C@@]5(C)[C@@H]4C[C@@H](O)[C@@H]4[C@@H]5C[C@H](O)[C@]5(C)[C@@H]([C@H](C)CCC(=O)O)CC[C@@H]45)cc3)C[C@@]21C",
    "MEASUREMENT_TARGET": "Glucocorticoid receptor (Rattus norvegicus) (UniProt P06536)",
    "pKi": 6.47
  },
  {
    "MOLECULE": "C#C[C@]1(O)CC[C@H]2[C@@H]3CCC4=CC(=O)CCC4=C3[C@@H](c3ccc(N(C)CCCC(=O)N(C)C4CC[C@@]5(C)[C@@H](C4)C[C@@H](O)[C@@H]4[C@@H]5C[C@H](O)[C@]5(C)[C@@H]([C@H](C)CCC(=O)O)CC[C@@H]45)cc3)C[C@@]21C (some centres undefined)",
    "MEASUREMENT_TARGET": "Glucocorticoid receptor (Rattus norvegicus) (UniProt P06536)",
    "pKi": 7.22
  }
]

----------
Each item that follows carries a reported log10 Ki.
Molecular target: UniProt P04150
Sequence (P04150 whole entry): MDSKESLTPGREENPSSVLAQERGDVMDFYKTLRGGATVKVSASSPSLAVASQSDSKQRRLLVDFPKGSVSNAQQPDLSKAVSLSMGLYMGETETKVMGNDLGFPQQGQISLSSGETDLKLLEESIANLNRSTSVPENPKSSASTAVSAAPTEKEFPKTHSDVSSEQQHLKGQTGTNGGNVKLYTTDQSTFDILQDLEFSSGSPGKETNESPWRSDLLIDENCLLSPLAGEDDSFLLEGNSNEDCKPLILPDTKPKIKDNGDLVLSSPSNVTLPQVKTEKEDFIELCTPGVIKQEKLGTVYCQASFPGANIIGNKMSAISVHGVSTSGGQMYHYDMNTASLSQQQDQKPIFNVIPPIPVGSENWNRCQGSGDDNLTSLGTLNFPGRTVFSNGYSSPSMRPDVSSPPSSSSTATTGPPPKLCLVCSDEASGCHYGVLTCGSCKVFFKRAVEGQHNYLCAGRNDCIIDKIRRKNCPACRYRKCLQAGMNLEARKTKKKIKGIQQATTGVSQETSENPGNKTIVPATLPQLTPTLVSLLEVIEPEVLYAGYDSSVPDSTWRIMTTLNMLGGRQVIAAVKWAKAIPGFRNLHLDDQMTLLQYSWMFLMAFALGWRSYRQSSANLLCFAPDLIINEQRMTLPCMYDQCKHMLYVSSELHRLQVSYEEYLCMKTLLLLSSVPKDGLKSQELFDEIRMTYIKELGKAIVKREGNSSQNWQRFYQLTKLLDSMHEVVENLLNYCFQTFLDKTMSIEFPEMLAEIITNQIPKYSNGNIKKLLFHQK
Experiment: Inhibition of human glucocorticoid receptor
QUANTITY_NAME: log10 Ki (log10 of the value in nM)

[
  {
    "COMPOUND": "C#C[C@]1(O)CC[C@H]2[C@@H]3CCC4=CC(=O)CCC4=C3[C@@H](c3ccc(N(C)CCNC(=O)O[C@@H]4C[C@@H]5CC(O)CC[C@]5(C)[C@H]5C[C@H](O)[C@]6(C)[C@@H]([C@H](C)CCC(=O)O)CC[C@H]6[C@H]45)cc3)C[C@@]21C (stereo not given in full)",
    "log10 Ki": 0.08
  },
  {
    "COMPOUND": "C#C[C@]1(O)CC[C@H]2[C@@H]3CCC4=CC(=O)CCC4=C3[C@@H](c3ccc(N(C)CCNC(=O)OC4CC[C@@]5(C)[C@@H](C4)C[C@@H](O)[C@@H]4[C@@H]5C[C@H](O)[C@]5(C)[C@@H]([C@H](C)CCC(=O)O)CC[C@@H]45)cc3)C[C@@]21C (stereo not given in full)",
    "log10 Ki": -0.41
  },
  {
    "COMPOUND": "C#C[C@]1(O)CC[C@H]2[C@@H]3CCC4=CC(=O)CCC4=C3[C@@H](c3ccc(N(C)CCOC4CC[C@@]5(C)[C@H](CC[C@@H]6[C@@H]5CC[C@]5(C)[C@@H]([C@H](C)CCC(=O)O)CC[C@@H]65)C4)cc3)C[C@@]21C (stereo not given in full)",
    "log10 Ki": -0.66
  },
  {
    "COMPOUND": "C#C[C@]1(O)CC[C@H]2[C@@H]3CCC4=CC(=O)CCC4=C3[C@@H](c3ccc(N(C)CCOC4CC[C@@]5(C)[C@@H](C4)C[C@@H](O)[C@@H]4[C@@H]5C[C@H](O)[C@]5(C)[C@@H]([C@H](C)CCC(=O)O)CC[C@@H]45)cc3)C[C@@]21C (stereo in doubt; form 2)",
    "log10 Ki": -0.57
  },
  {
    "COMPOUND": "C#C[C@]1(O)CC[C@H]2[C@@H]3CCC4=CC(=O)CCC4=C3[C@@H](c3ccc(N(C)CCCC(=O)N(C)C4CC[C@@]5(C)[C@@H](C4)C[C@@H](O)[C@@H]4[C@@H]5C[C@H](O)[C@]5(C)[C@@H]([C@H](C)CCC(=O)O)CC[C@@H]45)cc3)C[C@@]21C (stereo not given in full)",
    "log10 Ki": -0.57
  },
  {
    "COMPOUND": "C#C[C@]1(O)CC[C@H]2[C@@H]3CCC4=CC(=O)CCC4=C3[C@@H](c3ccc(N(C)CCOC4CC[C@@]5(C)[C@@H](C4)C[C@@H](O)[C@@H]4[C@@H]5CC[C@]5(C)[C@@H]([C@H](C)CCC(=O)O)CC[C@@H]45)cc3)C[C@@]21C (stereo not given in full)",
    "log10 Ki": -0.74
  },
  {
    "COMPOUND": "C#C[C@]1(O)CC[C@H]2[C@@H]3CCC4=CC(=O)CCC4=C3[C@@H](c3ccc(N(C)C(=O)CC[C@H](NC(=O)CC[C@@H](C)[C@H]4CC[C@H]5[C@@H]6[C@H](O)C[C@@H]7C[C@H](O)CC[C@]7(C)[C@H]6C[C@H](O)[C@]45C)C(=O)O)cc3)C[C@@]21C",
    "log10 Ki": 0.48
  },
  {
    "COMPOUND": "C#C[C@]1(O)CC[C@H]2[C@@H]3CCC4=CC(=O)CCC4=C3[C@@H](c3ccc(N(C)CCCOC4CC[C@@]5(C)[C@@H](C4)C[C@@H](O)[C@@H]4[C@@H]5C[C@H](O)[C@]5(C)[C@@H]([C@H](C)CCC(=O)O)CC[C@@H]45)cc3)C[C@@]21C (stereo not given in full)",
    "log10 Ki": -0.66
  },
  {
    "COMPOUND": "C#C[C@]1(O)CC[C@H]2[C@@H]3CCC4=CC(=O)CCC4=C3[C@@H](c3ccc(N(C)CCOCCO[C@H]4CC[C@@]5(C)[C@@H](C4)C[C@@H](O)[C@@H]4[C@@H]5C[C@H](O)[C@]5(C)[C@@H]([C@H](C)CCC(=O)O)CC[C@@H]45)cc3)C[C@@]21C",
    "log10 Ki": -0.77
  },
  {
    "COMPOUND": "C#C[C@]1(O)CC[C@H]2[C@@H]3CCC4=CC(=O)CCC4=C3[C@@H](c3ccc(N(C)C(C)=O)cc3)C[C@@]21C",
    "log10 Ki": -0.40
  }
]
